- run description: clinical
- assay context: human, in vivo, po, 20 mg/kg, CL/F, cannabidiol, single 20 mg/kg oral dose of cannabidiol solution, fasted; mean
value type: CL/F
Could you kindly put the unit after your number?

q: Sample C=C(C)[C@@H]1CCC(C)=C[C@H]1c1c(O)cc(CCCCC)cc1O — what was its CL/F?
a: 1140 mL/min/kg

---

- run description: clinical
- assay context: human, in vivo, po, 20 mg/kg, Vd/F, cannabidiol, single 20 mg/kg oral dose of cannabidiol solution, fasted; mean
value type: Vd/F (L/kg)
Just the number in L/kg, nothing appended.

q: Fill blank: measured Vd/F of the molecule C=C(C)[C@@H]1CCC(C)=C[C@H]1c1c(O)cc(CCCCC)cc1O [cannabidiol] is ____.
a: 2680
